subject-of-test: NDM-1 (Klebsiella pneumoniae)
Sequence (C7C422 whole entry, looked up, species assumed): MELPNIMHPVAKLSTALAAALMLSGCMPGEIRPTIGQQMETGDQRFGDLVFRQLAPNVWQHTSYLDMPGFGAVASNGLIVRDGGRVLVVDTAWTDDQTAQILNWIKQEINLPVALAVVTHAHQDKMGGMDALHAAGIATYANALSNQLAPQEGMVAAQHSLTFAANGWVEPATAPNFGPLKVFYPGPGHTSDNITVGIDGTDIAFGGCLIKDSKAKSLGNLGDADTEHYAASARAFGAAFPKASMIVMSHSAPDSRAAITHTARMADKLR
assay-info: biochemical
Assay type: biochemical
condition-details: NDM-1 enzyme, CCF2-FA substrate; read-out: NDM-1 IC50
pIC50 listing for selected compounds.
// scale note: pIC50 = -log10(conc_M); give the bare number

compound | pIC50
N[C@]1(c2ccc(-c3ccc(C(F)(F)F)c(S(N)(=O)=O)c3-c3nn[nH]n3)cc2)CCNC1 [Example 547] | 8.03
Nc1nc2ccc(-c3ccc(C(F)(F)F)c(S(N)(=O)=O)c3-c3nnn[nH]3)cc2[nH]1 [Example 552] | 8.88
Nc1ccc2cccc(-c3ccc(C(F)(F)F)c(S(N)(=O)=O)c3-c3nn[nH]n3)c2n1 [Example 554] | 9.94
NS(=O)(=O)c1c(C(F)(F)F)ccc(N2CCC[C@@H](O)C2)c1-c1nnn[nH]1 [Example 665] | 8.13
NS(=O)(=O)c1c(C(F)(F)F)ccc(-c2ccc(C3CCN(CC4CNC4)CC3)cc2)c1-c1nnn[nH]1 [Example 671] | 8.38
NS(=O)(=O)c1cccc(-c2cccc3sc(N[C@H]4CC[C@H](N)CC4)nc23)c1-c1nnn[nH]1 [Example 641] | 8.99

For the compound shown here, NC(=O)C1CCN(c2ccc(C(F)(F)F)c(S(N)(=O)=O)c2-c2nnn[nH]2)CC1 [Example 656] , give the reported pIC50.
8.70

For the compound shown here, CC(=O)NC1CCN(c2ccc(-c3cccc(S(N)(=O)=O)c3-c3nnn[nH]3)cn2)C1 (stereo not drawn) [Example 623] , give the reported pIC50.
8.10

For the compound shown here, NC1(c2ccc(-c3ccc(C(F)(F)F)c(S(N)(=O)=O)c3-c3nnn[nH]3)cc2)CCCC1 [Example 729] , give the reported pIC50.
8.31

For the compound shown here, NCC1CCC(N[C@H]2CC[C@H](c3ccc(C(F)(F)F)c(S(N)(=O)=O)c3-c3nnn[nH]3)CC2)CC1 (stereo partly drawn) [Example 704] , give the reported pIC50.
7.83

For the compound shown here, NS(=O)(=O)c1c(C(F)(F)F)ccc(-c2ccc(C3CCN(CC4CCCCN4)CC3)cc2)c1-c1nnn[nH]1 (stereo not drawn) [Example 676] , give the reported pIC50.
8.25

For the compound shown here, NS(=O)(=O)c1c(C(F)(F)F)ccc(N2CCN(CCCO)CC2)c1-c1nnn[nH]1 [Example 664] , give the reported pIC50.
7.74

For the compound shown here, Nc1nc2cccc(-c3ccc(CC4CCNCC4)c(S(N)(=O)=O)c3-c3nn[nH]n3)c2[nH]1 [Example 612] , give the reported pIC50.
8.79

For the compound shown here, C[N+](C)(C)CCN1CCC(c2ccc(-c3ccc(C(F)(F)F)c(S(N)(=O)=O)c3-c3nnn[nH]3)cc2)CC1 [Example 677] , give the reported pIC50.
8.38

For the compound shown here, NS(=O)(=O)c1c(C[C@H]2CC[C@@H](N)CC2)ccc(-c2ccc(C3CNC3)cc2)c1-c1nnn[nH]1 [Example 596] , give the reported pIC50.
8.36
